# Tested on: PC-14 (Lung Adenocarcinoma)
# PROTOCOL DETAILS: combination Emax (second highest fraction inhibited in the dose matrix, 72 h); higher = more inhibition; extreme values may be limits of the assay
Tick Met if combination Emax is 0.3 or greater. Tick Not met if combination Emax is less than 0.3.

**Query** Quick check: does Cc1c2c(nn1C)CSCc1cc(n(C)n1)CSc1cc(c3ccccc3c1)OCCCc1c(C(=O)O)n(C)c3c-2c(Cl)ccc13 [AZD5991] + CS(=O)(=O)CCNCc1ccc(-c2ccc3ncnc(Nc4ccc(OCc5cccc(F)c5)c(Cl)c4)c3c2)o1 [Lapatinib] (first compound max 1 µM, 7x7, partner max 10 µM) have combination Emax greater than or equal to 0.3?
**Result** Met

**Query** Quick check: does CCN(CCO)CCCOc1ccc2c(Nc3cc(CC(=O)Nc4cccc(F)c4)[nH]n3)ncnc2c1 [AZD2811] + C[C@@H]1COCCN1C2=NC(=NC(=C2)C3(CC3)[S@](=N)(=O)C)C4=C5C=CNC5=NC=C4 [AZD6738] (first compound max 1 µM, 7x7, partner max 10 µM) have combination Emax greater than or equal to 0.3?
**Result** Met

**Query** Quick check: does Cc1c2c(nn1C)CSCc1cc(n(C)n1)CSc1cc(c3ccccc3c1)OCCCc1c(C(=O)O)n(C)c3c-2c(Cl)ccc13 [AZD5991] + Cc1cc2ncnn2cc1Nc1ncc2c(n1)n(C1CCOCC1)c(=O)n2C [AZD7648] (first compound max 1 µM, 7x7, partner max 10 µM) have combination Emax greater than or equal to 0.3?
**Result** Not met

**Query** Quick check: does Cc1cc2ncnn2cc1Nc1ncc2c(n1)n(C1CCOCC1)c(=O)n2C [AZD7648] + CCN(CCO)CCCOc1ccc2c(Nc3cc(CC(=O)Nc4cccc(F)c4)[nH]n3)ncnc2c1 [AZD2811] (first compound max 10 µM, 7x7, partner max 1 µM) have combination Emax greater than or equal to 0.3?
**Result** Met

**Query** Quick check: does CC1(C)CCC(CN2CCN(c3ccc(C(=O)NS(=O)(=O)c4ccc(NCC5CCOCC5)c([N+](=O)[O-])c4)c(Oc4cnc5[nH]ccc5c4)c3)CC2)=C(c2ccc(Cl)cc2)C1 [Venetoclax] + CCN(CCO)CCCOc1ccc2c(Nc3cc(CC(=O)Nc4cccc(F)c4)[nH]n3)ncnc2c1 [AZD2811] (first compound max 1 µM, 7x7, partner max 1 µM) have combination Emax greater than or equal to 0.3?
**Result** Met

**Query** Quick check: does C[C@@H](Nc1cc(F)cc(F)c1)c1cc(C(=O)N(C)C)cc2c(=O)cc(N3CCOCC3)oc12 [AZD8186] + C1CN(CCC1(C(=O)N[C@@H](CCO)C2=CC=C(C=C2)Cl)N)C3=NC=NC4=C3C=CN4 [AZD5363] (first compound max 10 µM, 7x7, partner max 10 µM) have combination Emax greater than or equal to 0.3?
**Result** Met

----------
# Tested on: RERF-LC-KJ (Lung Adenocarcinoma);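 further: after 72 h of two-drug dosing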
# PROTOCOL DETAILS: Bliss excess, mean over the matrix (fraction); higher = more synergy
ENDPOINT NAME: Bliss excess
No unit in the answer, please; the number alone is enough.

**Query** Specify Bliss excess for C[C@@H]1COCCN1c1cc(C2([S@](C)(=N)=O)CC2)nc(-c2ccnc3[nH]ccc23)n1 [AZD6738] + O=C(c1cc(Cc2n[nH]c(=O)c3ccccc23)ccc1F)N1CCN(C(=O)C2CC2)CC1 [Olaparib] (first compound max 10 µM, 7x7, partner max 10 µM) and stop.
**Result** 0.0228

**Query** Specify Bliss excess for COc1cccc(OCCCN)c1-c1cc(Nc2cnc(C#N)cn2)n[nH]1 [Prexasertib] + CN(C)CCCOc1ccc(-c2ccc3ncc4c(c3c2)n(C2CCOCC2)c(=O)n4C)cn1 [AZD0156] (first compound max 1 µM, 7x7, partner max 1 µM) and stop.
**Result** -0.0159

**Query** Specify Bliss excess for COc1cccc(OCCCN)c1-c1cc(Nc2cnc(C#N)cn2)n[nH]1 [Prexasertib] + Cc1cc2ncnn2cc1Nc1ncc2c(n1)n(C1CCOCC1)c(=O)n2C [AZD7648] (first compound max 1 µM, 7x7, partner max 10 µM) and stop.
**Result** 0.0558

**Query** Specify Bliss excess for Cc1cc2ncnn2cc1Nc1ncc2c(n1)n(C1CCOCC1)c(=O)n2C [AZD7648] + CN(C)CCCOc1ccc(-c2ccc3ncc4c(c3c2)n(C2CCOCC2)c(=O)n4C)cn1 [AZD0156] (first compound max 10 µM, 7x7, partner max 1 µM) and stop.
**Result** 0.0285

**Query** Specify Bliss excess for CC1(C)CCC(CN2CCN(c3ccc(C(=O)NS(=O)(=O)c4ccc(NCC5CCOCC5)c([N+](=O)[O-])c4)c(Oc4cnc5[nH]ccc5c4)c3)CC2)=C(c2ccc(Cl)cc2)C1 [Venetoclax] + C[C@@H]1COCCN1C2=NC(=NC(=C2)C3(CC3)[S@](=N)(=O)C)C4=C5C=CNC5=NC=C4 [AZD6738] (first compound max 1 µM, 7x7, partner max 10 µM) and stop.
**Result** -0.0036

**Query** Specify Bliss excess for CN(C)CCCOc1ccc(-c2ccc3ncc4c(c3c2)n(C2CCOCC2)c(=O)n4C)cn1 [AZD0156] + C=CCn1c(=O)c2cnc(Nc3ccc(N4CCN(C)CC4)cc3)nc2n1-c1cccc(C(C)(C)O)n1 [AZD1775] (first compound max 1 µM, partner max 1 µM) and stop.
**Result** -0.0193

These data points were gathered from the supplement of paper PMC11061612.
